For each record, write down the corresponding % Inhibition of JEG-3 cell invasion, 25 µg/ml (first test).
Target: T1, MMP-26 (human)
T1 sequence: ASDF
Test: cell-based or functional assay
One number for each entry, in %.

| BINDER | DATA VALUE |
| --- | --- |
| C12 (antibody, V domains shown) VH: EVQLLESGGGLVQPGGSLRLSCAASGFTFSAYNMMWVRQAPGKGLEWVSRIYPSGGYTLYADSVKGRFTISRDNSKNTLYLQMNSLRAEDTAVYYCARQKLMIRAVRPFDYWGQGTLVTVSS VL: QSELTQPPSVSVSPAQTASITCSGDKLGDKYACWYQQKPGQSPVLVIYEDTKRPSGIPERFSGSNSGNTATLTISGTQVMDEADYYCQVWDSSTAVFGGGTKLTVLG | 38 |

query: Please give the measured % Inhibition of JEG-3 cell invasion, 25 µg/ml (first test) for this binder: C11 (antibody, human IgG4, V domains shown) VH: EVQLLESGGGLVQPGGSLRLSCAASGFTFSEYPMWWVRQAPGKGLEWVSWIYPSGGNTDYADSVKGRFTISRDNSKNTLYLQMNSLRAEDTAVYYCAIPYCSSSSCPLHWGQGTLVTVSS VL: QSELTQPPSASGSPGQSVTISCTGTSSDVGGYNYVSWYQQHPDKAPKLLIYEVTQRPSGVPDRFSGSRSGNTASLTVSGLQAEDEADYYCSSYAGRNNLYVFGPGTKVTVLG
result: 29
